Values from PubChem BioAssay (NCATS)

# system_name: Rap guanine nucleotide exchange factor 3 (Homo sapiens) (UniProt O95398)
# Sequence (O95398 whole entry, looked up): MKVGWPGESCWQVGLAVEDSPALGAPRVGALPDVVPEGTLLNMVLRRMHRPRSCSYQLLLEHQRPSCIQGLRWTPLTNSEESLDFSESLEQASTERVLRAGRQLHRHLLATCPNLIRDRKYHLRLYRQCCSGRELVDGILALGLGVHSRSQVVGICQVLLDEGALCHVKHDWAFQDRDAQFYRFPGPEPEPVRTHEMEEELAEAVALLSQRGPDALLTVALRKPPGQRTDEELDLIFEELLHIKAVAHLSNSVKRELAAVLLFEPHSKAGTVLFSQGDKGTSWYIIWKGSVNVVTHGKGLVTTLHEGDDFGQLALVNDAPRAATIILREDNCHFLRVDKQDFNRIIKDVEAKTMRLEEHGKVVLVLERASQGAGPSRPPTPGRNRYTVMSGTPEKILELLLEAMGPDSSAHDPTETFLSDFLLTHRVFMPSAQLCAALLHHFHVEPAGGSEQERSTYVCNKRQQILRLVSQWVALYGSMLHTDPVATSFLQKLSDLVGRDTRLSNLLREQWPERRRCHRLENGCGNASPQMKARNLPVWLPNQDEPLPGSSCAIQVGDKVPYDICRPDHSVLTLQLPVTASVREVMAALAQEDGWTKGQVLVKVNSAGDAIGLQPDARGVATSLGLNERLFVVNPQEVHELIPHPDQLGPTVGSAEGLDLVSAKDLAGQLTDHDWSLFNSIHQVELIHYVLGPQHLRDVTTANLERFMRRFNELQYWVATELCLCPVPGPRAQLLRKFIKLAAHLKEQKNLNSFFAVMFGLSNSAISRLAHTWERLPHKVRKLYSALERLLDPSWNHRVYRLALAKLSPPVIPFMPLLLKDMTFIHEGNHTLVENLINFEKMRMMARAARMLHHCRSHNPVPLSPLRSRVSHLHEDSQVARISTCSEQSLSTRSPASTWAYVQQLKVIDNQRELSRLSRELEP
# procedure_text: Counterscreen qHTS for antagonist of cAMP-regulated guanine nucleotide exchange factor 3 (EPAC1) (AID 1645888);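 also: fluorescence loss as bound BODIPY-GDP is released from Rap1B; % of control where 0% means no effect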
# recorded_conditions: Rap1B-BODIPY-GDP nucleotide exchange, fluorescence; series mostly up to 154 µM
Results filed as inconclusive are left out. Calls of active or inactive are those of the source. Calls follow the shape of the dose curve; as a rule, active = well fitted inhibition curve with a large enough effect; inconclusive = small, poorly fitted or top-dose-only effect; inactive = no such curve, though single readings can be large or run the other way.
reported_property: activity change, negative = inhibition

Examples from the recorded data:
For `COc1ccc(NC(=O)Cn2cnc3sc(C)c(S(=O)(=O)N4CCOCC4)c3c2=O)c(OC)c1` , what is its reported activity change, negative = inhibition? -23.9% [at 30.8 µM] (inactive)

For `CC(=O)N1CCc2cc(Br)cc(S(=O)(=O)NCCCN(C)Cc3ccccc3)c21` , what is its reported activity change, negative = inhibition? inactive

For `Clc1ccc2nc(C3CCCCC3)c(CC3CCCCC3)n2c1` , what is its reported activity change, negative = inhibition? -0.327% [at 30.8 µM] (inactive)

For `CCOC(=O)c1c(C)nc2sc(C(N)=O)c(N)c2c1-c1ccccc1` , what is its reported activity change, negative = inhibition? -13.8% [at 30.8 µM] (inactive)

For COc1ccc(C(=O)N2CCc3cc(OC)c(OC)cc3C2c2ccc(OC)c(OC)c2)cc1 (stereo unspecified) , what is its reported activity change, negative = inhibition? -5.18% [at 30.8 µM] (inactive)

For `COc1cc(/C=C/C(=O)OCC(=O)Nc2oc(C)c3c(C)n[nH]c(=O)c23)ccc1OC(F)F` , what is its reported activity change, negative = inhibition? inactive

For `CCOc1cc(/C=C2\C(=N)N3N=C(S(C)(=O)=O)SC3=NC2=O)ccc1OCCOc1cccc(OC)c1` , what is its reported activity change, negative = inhibition? inactive

For `CSc1nnc(-c2ccccc2)c(-c2ccccc2)n1` , what is its reported activity change, negative = inhibition? inactive

Continuing:
For O=C(NCC1CCCO1)c1ccc(C(=O)NCC2CCCO2)cc1 (stereo unspecified) , what is its reported activity change, negative = inhibition? -1.36% [at 30.8 µM] (inactive)

For `Cc1ccc(S(=O)(=O)/N=C2/NC(=O)/C(=C\c3cc(Br)cc(Br)c3O)S2)cc1` , what is its reported activity change, negative = inhibition? inactive

For `Cc1nc(N)sc1C(=O)N1N=N1` , what is its reported activity change, negative = inhibition? inactive

====

# procedure_text: qHTS Assay for Lipid Storage Modulators (AID 1519)
# recorded_conditions: Drosophila S3 cells, BODIPY lipid droplet/cell ratio, laser cytometry; measured here: cell count channel max response; cells loaded with oleic acid
Records with an inconclusive call do not appear.
reported_property: max response
Don't forget the unit after the value.

For CC(=O)OCC1OC(Oc2cc(OC(C)=O)c3c(=O)cc(-c4ccc(OC(C)=O)cc4)oc3c2)[C@@H](OC(C)=O)C(OC(C)=O)C1OC(C)=O (stereo partly specified) , what is its reported max response? -1.21%

For C[C@@]12CCC(=O)C=C1C=CC1C2CC[C@]2(C)C1CC[C@@]21CCC(=O)O1 (stereo partly specified) , what is its reported max response? 3.63%

For C[C@]12CCC(=O)C=C1CCC1C2C(O)C[C@]2(C)C1CC[C@]2(O)C(=O)CO (stereo partly specified) , what is its reported max response? 7.87%

Continuing:
For `C1CCN2C[C@@H]3C[C@@H](CN4CCCC[C@H]34)[C@H]2C1` , what is its reported max response? -3.93%

For CC(C)CCCC(C)C1CCC2C3CC(=O)[C@H]4CC(O)CC[C@]4(C)C3CC[C@@]12C (stereo partly specified) , what is its reported max response? -5.43%

For CC1(C)CC[C@]2(C)CC[C@@]3(C)C(=CCC4[C@@]5(C)CCC(O)C(C)(C)C5CC[C@@]43C)C2C1 (stereo partly specified) , what is its reported max response? 18%

====

# system_name: Rap guanine nucleotide exchange factor 4 (Homo sapiens)
# procedure_text: Confirmatory qHTS for antagonist of cAMP-regulated guanine nucleotide exchange factor 4 (EPAC2) (AID 1645885); also: nearly all actives have a fitted effect of over 25% in size
# recorded_conditions: EPAC2 Rap1B-BODIPY-GDP exchange fluorescence, biochemical; series mostly up to 12.7 µM
Inconclusive results are not listed. The source made the active and inactive calls. The call rests on the fitted dose curve; in most records, active means well fitted inhibition curve with a large enough effect; inconclusive means small, poorly fitted or top-dose-only effect; inactive means no such curve, though single readings can be large or run the other way.
Pick one and only one: active, inactive

Record lookup: outcome of this test for `COC(=O)c1ccc(/C=C2\CCn3c2nc2cc(C(=O)O)ccc2c3=O)cc1` ? inactive

Record lookup: outcome of this test for `O=C(COC(=O)/C=C/c1cccc(C(F)(F)F)c1)NC(=O)NC1CCCC1` ? inactive

Record lookup: outcome of this test for `Cc1[nH][nH]c(=O)c1C(c1c(C)[nH][nH]c1=O)c1cn(Cc2ccccc2Cl)c2ccccc12` ? inactive

Record lookup: outcome of this test for `COc1cc(/C=N/NC(=O)c2ccccc2)ccc1O` ? inactive

Record lookup: outcome of this test for `COc1ccc(CC(=O)Nc2nc(-c3cccnc3)cs2)cc1` ? inactive

Continuing:
Record lookup: outcome of this test for `Cc1cccc(C(=O)Nc2ccc3c(c2)ncn3C)c1` ? inactive

Record lookup: outcome of this test for `CC(C)(C)c1ccc(OCCC(=O)OCC(=O)Nc2ccc(N3CCOCC3)cc2)cc1` ? inactive

Record lookup: outcome of this test for O=C1Nc2ccccc2SC1c1ccccc1 (stereo unspecified) ? inactive

Record lookup: outcome of this test for `NC(=O)Nc1ccc(/C=C2\C=Cc3ccccc32)cc1` ? active

Record lookup: outcome of this test for `COc1ccc(CCNC(=O)CSc2nc(N)c(C#N)c(-c3cccs3)c2C#N)cc1OC` ? inactive

Record lookup: outcome of this test for CCC(C)NC(=O)Cn1c(=O)n(CCCCCC(=O)Nc2ccccc2)c(=O)c2sccc21 (stereo unspecified) ? inactive

====

Below is a list of entries, each paired with its recorded activity change, negative = inhibition value.
# procedure_text: NFAT Signaling Pathway (AID 444);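 also: carbachol stimulus at about its EC50 of 1 µM final; % is scaled to controls: 0 for no effect and ±100 for the full control effect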
# recorded_conditions: Jurkat NFAT-bla M1, carbachol, beta-lactamase ratio, 5 h; at 17.2 µM (top of the series) unless noted
Records with an inconclusive call do not appear. The source made the active and inactive calls. Calls come from the whole dose curve; as a rule, active = well fitted curve in either direction with a large enough effect (not every such curve was filed as active); inconclusive = small, poorly fitted or top-dose-only effect, or another doubt; inactive = flat fitted curve, though single readings scatter.

Examples from the recorded data:
For `C=C1CC[C@H](O)C/C1=C/C=C1\CCC[C@]2(C)[C@H]1CC[C@H]2[C@@H](C)/C=C\[C@@H](C)C(C)C` , what is its reported activity change, negative = inhibition? 1.42% (inactive)

For `CC(C)(C)NC[C@H](O)COc1cccc2c1C[C@@H](O)[C@@H](O)C2` , what is its reported activity change, negative = inhibition? -3.7% (inactive)

For `NCC[C@H](O)C(=O)N[C@H]1C[C@@H](N)[C@@H](O[C@H]2O[C@@H](CN)[C@@H](O)[C@@H](O)[C@@H]2O)[C@@H](O)[C@@H]1O[C@H]1O[C@@H](CO)[C@@H](O)[C@@H](N)[C@@H]1O` , what is its reported activity change, negative = inhibition? -4.44% (inactive)

For `Nc1c2ccccc2nc2c(O)cccc12` , what is its reported activity change, negative = inhibition? -1.27% (inactive)

Continuing:
For `CC(=O)[C@@H]1CC[C@@H]2[C@@H]3C[C@H](C)C4=CC(=O)CC[C@@]4(C)[C@H]3[C@H](O)C[C@]21C` , what is its reported activity change, negative = inhibition? -5.99% (inactive)

For `CC(C)(N=NC(C)(C)C(=N)N)C(=N)N` , what is its reported activity change, negative = inhibition? 3.21% [at 7.69 µM] (inactive)

For `C=CCSC[C@@H]1Nc2cc(Cl)c(S(N)(=O)=O)cc2S(=O)(=O)N1` , what is its reported activity change, negative = inhibition? -2.73% (inactive)

====

# procedure_text: Primary qHTS for inhibitors of nuclear receptor binding SET domain protein 2 (NSD2) in an RCH-ACV wild type WT cells (2C) (AID 1645877); also: nearly all actives have a fitted effect of over 70% in size
# recorded_conditions: RCH-ACV (leukaemia line) NSD2 WT (2C) viability, CellTiter-Glo, 72 h; series mostly up to 44.9 µM
Results filed as inconclusive are left out. Activity calls are given as the source filed them. The call rests on the fitted dose curve; in most records, active means well fitted inhibition curve with a large enough effect; inconclusive means small, poorly fitted or top-dose-only effect; inactive means no such curve, though single readings can be large or run the other way.
Pick one and only one: True = active, False = inactive

Here are 6 compounds together with their reported answers.
Record lookup: outcome of this test for `O=c1c(-c2ccc(O)cc2)coc2cc(O[C@@H]3O[C@H](CO)[C@@H](O)[C@H](O)[C@H]3O)ccc12` ? True

Record lookup: outcome of this test for `Cc1ccc(Nc2nnc(Cc3ccncc3)c3ccccc23)cc1Br` ? True

Record lookup: outcome of this test for Cc1cn(C2C[C@H](O)[C@@H](CO)O2)c(=O)[nH]c1=O (some centres not stated) ? False

Record lookup: outcome of this test for `COc1cc(OC)cc(N2CCN(C(=O)Nc3nc4cc(F)ccc4nc3OC)CC2)c1` ? True

Record lookup: outcome of this test for `Cc1cc(OCCCc2c3n(c4c(-c5c(C)nn(C)c5C)c(Cl)ccc24)[C@H](C)CN(c2cn(C)c4ccc(C(=O)O)cc24)C3=O)cc(C)c1Cl` ? True

Record lookup: outcome of this test for `CN[C@H]1CN(c2ccc3c(=O)c(C(=O)O)cn(-c4nccs4)c3n2)C[C@@H]1OC` ? True

Continuing:
Record lookup: outcome of this test for `N#Cc1c(N)nc(N)nc1N[C@H](c1nc2c(F)ccc(Cl)c2c(=O)n1-c1cccnc1)C1CC1` ? True
